Collected inhibition at 0.05 µM values appear next to each entry.
Biological target: human Smo (amino acids 181-787) (Homo sapiens, UniProt Q99835)
Construct: expressed in transfected cells; membrane preparation
Sequence (Q99835 181-787): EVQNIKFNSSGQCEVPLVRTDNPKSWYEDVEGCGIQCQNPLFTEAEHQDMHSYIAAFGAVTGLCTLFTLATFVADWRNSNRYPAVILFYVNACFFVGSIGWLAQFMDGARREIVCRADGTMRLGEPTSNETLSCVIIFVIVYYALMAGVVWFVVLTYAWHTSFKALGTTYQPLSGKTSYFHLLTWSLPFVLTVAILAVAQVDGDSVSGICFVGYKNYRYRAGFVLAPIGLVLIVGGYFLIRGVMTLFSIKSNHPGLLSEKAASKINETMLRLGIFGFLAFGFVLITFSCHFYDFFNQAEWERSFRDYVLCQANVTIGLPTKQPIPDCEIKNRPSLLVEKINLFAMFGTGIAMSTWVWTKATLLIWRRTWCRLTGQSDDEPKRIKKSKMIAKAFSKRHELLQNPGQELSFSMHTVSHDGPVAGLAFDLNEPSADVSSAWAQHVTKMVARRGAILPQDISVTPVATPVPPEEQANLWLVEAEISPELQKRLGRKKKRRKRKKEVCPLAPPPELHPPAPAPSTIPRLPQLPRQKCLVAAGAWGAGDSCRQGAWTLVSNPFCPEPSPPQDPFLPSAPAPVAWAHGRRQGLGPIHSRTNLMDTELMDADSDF
Assay: Smo radioligand competition binding assay (displacement of 3H-PF-03451358 from HEK293 membranes)
Conditions: 0.05 μM test compound; displacement of 3H-PF-03451358; read-out: SMO % inh. @ 0.05 μM
Write the number in % without appending the unit.

Examples from the recorded data:
INSERT INTO results (molecule, display_unit, assay_value) VALUES
  ('Cn1c(-c2nc(N3CCC(S(C)(=O)=O)CC3)ncc2Cl)nc2ccccc21', '%', 90),
  ('Cn1c(-c2cc(N3CCN(CCO)CC3)ncc2Cl)nc2ccccc21', '%', 83),
  ('Cn1c(-c2cc(N3CC(c4ccncn4)C3)ncc2Cl)nc2ccccc21', '%', 57),
  ('Cn1c(-c2cc(N3CCC(NS(C)(=O)=O)C3)ncc2Cl)nc2ccccc21 (stereo not shown)', '%', 93),
  ('Cn1c(-c2cc(N3CCC4(CCCC(=O)N4)CC3)ncc2Cl)nc2ccccc21', '%', 97),
  ('Cc1nnc(C2CCN(c3cc(-c4nc5ccccc5n4C)c(Cl)cn3)CC2)o1', '%', 85),
  ('COC(=O)N(C)C1CCN(c2cc(-c3nc4ccccc4n3C)c(Cl)cn2)C1 (stereo not shown)', '%', 92),
  ('Cn1c(-c2cc(N3CCC(O)(CO)CC3)ncc2Cl)nc2ccccc21', '%', 94),
  ('CN(CCO)c1cc(-c2nc3ccccc3n2C)c(Cl)cn1', '%', 97),
  ('COC(=O)N1CCN(c2cc(-c3nc4ccccc4n3C)c(Cl)cn2)CC1', '%', 87);

Quick check: inhibition at 0.05 µM of Cn1c(-c2cc(N3C[C@H]4C[C@@H]3CN4S(C)(=O)=O)ncc2Cl)nc2ccccc21 ?
75

Quick check: inhibition at 0.05 µM of Cn1c(-c2cc(N3CCc4nnc(C5CC5)n4CC3)ncc2Cl)nc2ccccc21 ?
94

Quick check: inhibition at 0.05 µM of Cn1c(-c2ccnc(N3CCS(=O)(=O)CC3)c2)nc2ccccc21 ?
52

----------
Molecular target: human Smo (amino acids 181-787) (Homo sapiens, UniProt Q99835)
Mark true (1) for IC50 under 40 nM, false (0) if at or over.

INSERT INTO results (compound, target, discrete_label) VALUES
  ('Cn1c(-c2cc(N3CCN(C4CCS(=O)(=O)C4)CC3)ncc2Cl)nc2ccccc21 (stereo not drawn)', 'human Smo (amino acids 181-787) (Homo sapiens, UniProt Q99835)', 'false (0)'),
  ('Cn1c(-c2cc(N3CC(CS(C)(=O)=O)C3)ncc2Cl)nc2ccccc21', 'human Smo (amino acids 181-787) (Homo sapiens, UniProt Q99835)', 'true (1)'),
  ('Cn1c(-c2cc(N3CCC(C#N)CC3)ncc2Cl)nc2ccccc21', 'human Smo (amino acids 181-787) (Homo sapiens, UniProt Q99835)', 'true (1)');

Moving on to the next compound.
# TODO verify IC50 < 40 nM strictly for this compound: COC(=O)N1CCN(c2cccc(-c3nc4ccccc4n3C)n2)CC1
false (0)

----------
Molecular target: human Smo (amino acids 181-787) (Homo sapiens, UniProt Q99835)
Mark condition met for IC50 under 0.06 µM, condition not met if at or over.

INSERT INTO measurements (compound, target, discrete_label) VALUES
  ('CC(=O)N(C)C1CCN(c2cc(-c3nc4ccccc4n3C)c(Cl)cn2)C1 (stereo not drawn)', 'human Smo (amino acids 181-787) (Homo sapiens, UniProt Q99835)', 'condition not met'),
  ('CN1CC2(CCN(c3cc(-c4nc5ccccc5n4C)c(Cl)cn3)CC2)OC1=O', 'human Smo (amino acids 181-787) (Homo sapiens, UniProt Q99835)', 'condition met'),
  ('CC(=O)NC1CCN(c2cc(-c3nc4ccccc4n3C)c(F)cn2)CC1', 'human Smo (amino acids 181-787) (Homo sapiens, UniProt Q99835)', 'condition met'),
  ('Cn1c(-c2cc(N3CCNCC3)ncc2Cl)nc2ccccc21', 'human Smo (amino acids 181-787) (Homo sapiens, UniProt Q99835)', 'condition met'),
  ('CCn1nnnc1C1CN(c2cc(-c3nc4ccccc4n3C)c(Cl)cn2)CCO1 (stereo not drawn)', 'human Smo (amino acids 181-787) (Homo sapiens, UniProt Q99835)', 'condition met');

Moving on to the next compound.
# TODO verify IC50 < 0.06 µM strictly for this compound: CC(C)NC(=O)NC1CN(c2cc(-c3nc4ccccc4n3C)c(Cl)cn2)C1
condition met

Reference for the values: patent US20120157471A1
